Measured GI50 values are reported for all entries that follow.
Test system: U-251
TEST DETAILS: Growth inhibition of human U251 cells after 48 hrs by SRB assay
Type: functional
COND: U-251, 48 h

>  <RECORD SMILES>
COc1cc(C(=O)/C=C/c2c(C(F)(F)F)nc3ccccn23)cc(OC)c1OC

>  <SYSTEM>
U-251

>  <UNIT TEXT>
nM

>  <GI50>
1290

$$$$
>  <RECORD SMILES>
COc1ccc(C(=O)/C=C/c2c(C(F)(F)F)nc3ccccn23)cc1OC

>  <SYSTEM>
U-251

>  <UNIT TEXT>
nM

>  <GI50>
1100

$$$$
>  <RECORD SMILES>
COc1ccc(-c2nc3ccccn3c2/C=C/C(=O)c2cc(OC)c(OC)c(OC)c2)cc1OC

>  <SYSTEM>
U-251

>  <UNIT TEXT>
nM

>  <GI50>
2910

$$$$
>  <RECORD SMILES>
COc1cc(C(=O)/C=C/c2c(-c3ccc(F)cc3)nc3ncccn23)cc(OC)c1OC

>  <SYSTEM>
U-251

>  <UNIT TEXT>
nM

>  <GI50>
1680

$$$$
>  <RECORD SMILES>
COc1cc(C(=O)/C=C/c2c(-c3cccs3)nc3ccccn23)cc(OC)c1OC

>  <SYSTEM>
U-251

>  <UNIT TEXT>
nM

>  <GI50>
1660

$$$$
>  <RECORD SMILES>
COc1ccc(-c2nc3ncccn3c2/C=C/C(=O)c2cc(OC)c(OC)c(OC)c2)cc1

>  <SYSTEM>
U-251

>  <UNIT TEXT>
nM

>  <GI50>
1290

$$$$
>  <RECORD SMILES>
COc1ccc(-c2nc3ccccn3c2/C=C/C(=O)c2cc(OC)c(OC)c(OC)c2)cc1

>  <SYSTEM>
U-251

>  <UNIT TEXT>
nM

>  <GI50>
3000

$$$$

* * *

System: HT-29
TEST DETAILS: Growth inhibition of human HT-29 cells after 48 hrs by SRB assay
Assay type: functional
COND: HT-29, 48 h
1 (yes) if GI50 is below 3000 nM. 0 (no) if not; exact matches included in 0 (no).

>  <RECORD SMILES>
COc1ccc(-c2nc3ccccn3c2/C=C/C(=O)c2cc(OC)c(OC)c(OC)c2)cc1OC

>  <LABEL VALUE>
0 (no)

$$$$
>  <RECORD SMILES>
COc1ccc(-c2nc3ncccn3c2/C=C/C(=O)c2cc(OC)c(OC)c(OC)c2)cc1

>  <LABEL VALUE>
1 (yes)

$$$$
>  <RECORD SMILES>
COc1ccc(C(=O)/C=C/c2c(C(F)(F)F)nc3ccccn23)cc1OC

>  <LABEL VALUE>
1 (yes)

$$$$
>  <RECORD SMILES>
COc1cc(C(=O)/C=C/c2c(C(F)(F)F)nc3ccccn23)cc(OC)c1OC

>  <LABEL VALUE>
1 (yes)

$$$$
>  <RECORD SMILES>
COc1cc(C(=O)/C=C/c2c(-c3cccs3)nc3ccccn23)cc(OC)c1OC

>  <LABEL VALUE>
1 (yes)

$$$$
>  <RECORD SMILES>
COc1ccc(-c2nc3ccccn3c2/C=C/C(=O)c2cc(OC)c(OC)c(OC)c2)cc1

>  <LABEL VALUE>
0 (no)

$$$$
>  <RECORD SMILES>
COc1cc(C(=O)/C=C/c2c(-c3ccc(F)cc3)nc3ncccn23)cc(OC)c1OC

>  <LABEL VALUE>
1 (yes)

$$$$
